testedOn: CIB1 and αIIb interaction (CIB1-GST : F-αIIb peptide) (Homo sapiens, UniProt Q99828)
Construct: made in house; host or cells: BL-21 plus RIL cells (E. coli)
Sequence (Q99828 1-191): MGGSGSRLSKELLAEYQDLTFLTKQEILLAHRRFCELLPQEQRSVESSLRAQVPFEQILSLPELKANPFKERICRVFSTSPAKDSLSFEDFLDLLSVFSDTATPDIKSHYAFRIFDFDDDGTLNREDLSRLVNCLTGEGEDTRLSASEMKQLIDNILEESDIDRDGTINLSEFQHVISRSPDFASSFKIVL
protocolDescription: FP assay, 1536-well qHTS format (primary and confirmatory screen)
Assay type: binding
conditionNotes: confirmatory screen
resultType: Efficacy (%) (confirmatory screen)
Form entry: value (%) — number only.

[[record]]
smiles = "CN1CCN([C@H]2CC[C@H](n3cc(-c4ccc(Oc5ccccc5)cc4)c4c(N)ncnc43)CC2)CC1.Cl"
testedon = "CIB1 and αIIb interaction (CIB1-GST : F-αIIb peptide) (Homo sapiens, UniProt Q99828)"
reported = -44

[[record]]
smiles = "O=C(NC1=CC(=O)c2ccccc2C1=O)c1ccccc1.O=C(O)C(F)(F)F"
testedon = "CIB1 and αIIb interaction (CIB1-GST : F-αIIb peptide) (Homo sapiens, UniProt Q99828)"
reported = -159

[[record]]
smiles = "CSc1cc2c(s1)c1cnn(Cc3cccc(N)c3)c(=O)c1n2C.O=C(O)C(F)(F)F"
testedon = "CIB1 and αIIb interaction (CIB1-GST : F-αIIb peptide) (Homo sapiens, UniProt Q99828)"
reported = -133


Consider now this further molecule.
query: # get_value(readout='Efficacy (%) (confirmatory screen)', item= `Cc1ccc(C(=O)c2no[n+]([O-])c2C(=O)c2ccc(C)cc2)cc1.O=C(O)C(F)(F)F` )
result: -51
